tested on: Fibroblast; assay: Multiplex assay against human fibroblast; format: toxicity, cell-based; settings: 12 h, 1 µM, compound concentration 1 uM, replicate 1
observedProperty: Population Mitotic Cells (%)

[[record]]
compound = "Cc1c(Cc2ccc3ccccc3n2)c2cc(F)ccc2n1CC(=O)O [TIMAPIPRANT]"
readoutnumber = 58

[[record]]
compound = "O=c1nc2[nH]c3ccccc3nc-2c(=O)[nH]1 [ALLOXAZINE]"
readoutnumber = 43

[[record]]
compound = "O=C(Nc1cc(-c2ccccc2)nn1-c1ccccc1F)c1ccc([N+](=O)[O-])cc1"
readoutnumber = 71

[[record]]
compound = "O=c1ccc2ccc(OCCCCN3CCN(c4cccc5sccc45)CC3)cc2[nH]1 [BREXPIPRAZOLE]"
readoutnumber = 44

[[record]]
compound = "CN(C)C/C=C/C(=O)Nc1ccc(C(=O)N2CCCC(Nc3ncc(Cl)c(-c4c[nH]c5ccccc45)n3)C2)cc1 (stereo not given)"
readoutnumber = 51


----------
// reported Population Tubulin-Different-Phenotype (%) for each item listed
tested on: U2OS; assay: Multiplex assay against U2OS; format: toxicity, cell-based; settings: human, 12 h, 10 µM, compound concentration 10 uM, replicate 2
Non-standard residues stand in square brackets, D forms with d. Residues, ends and D or L forms follow the SMILES beside them.
observedProperty: Population Tubulin-Different-Phenotype (%)

[[record]]
molecule = "CC(C)C[C@@H]1NC(=O)[C@@H](C(C)C)NC(=O)[C@@H]2CCCN2C(=O)[C@@H](CC(=O)O)NC(=O)[C@@H](Cc2c[nH]c3ccccc23)NC1=O [BQ-123] (cyclo(L[dW][dD]P[dV]))"
readoutnumber = 2

[[record]]
molecule = "OCCCNc1cc(-c2ccnc(Nc3cccc(Cl)c3)n2)ccn1"
readoutnumber = 61

[[record]]
molecule = "CN1CCN(c2ccc(Nc3c4ccccc4nc4ccccc34)cc2)CC1.Cl.Cl.O"
readoutnumber = 85

[[record]]
molecule = "Cc1ccc(OCC(O)C(C)NC(C)C)c2c1CCC2.Cl (stereo unspecified)"
readoutnumber = 9

[[record]]
molecule = "CC(C)(C)c1ccc(CSc2cnn(C(C)(C)C)c(=O)c2Cl)cc1"
readoutnumber = 2

[[record]]
molecule = "C=CCN1C[C@H](C(=O)N(CCCN(C)C)C(=O)NCC)C[C@@H]2c3cccc4[nH]cc(c34)C[C@H]21"
readoutnumber = 9

[[record]]
molecule = "Cc1c(Cc2ccc3ccccc3n2)c2cc(F)ccc2n1CC(=O)O"
readoutnumber = 3

[[record]]
molecule = "Nc1nc(-c2ccco2)c2cnn(Cc3ccccc3F)c2n1"
readoutnumber = 1

[[record]]
molecule = "Cl.Cl.OCCOCCN1CCN(C(c2ccccc2)c2ccc(Cl)cc2)CC1 (stereo unspecified) [HYDROXYZINE HYDROCHLORIDE]"
readoutnumber = 7

[[record]]
molecule = "CCc1nn2c(C)cc(C)nc2c1Cc1ccc(-c2nnc(C3CCNCC3)o2)cc1"
readoutnumber = 44

[[record]]
molecule = "COc1ccc2[nH]c(I)c(CCNC(C)=O)c2c1"
readoutnumber = 2

[[record]]
molecule = "CCC(=O)OCC(=O)[C@@]1(OC(=O)CC)[C@@H](C)C[C@H]2[C@@H]3CCC4=CC(=O)C=C[C@]4(C)[C@@]3(Cl)[C@@H](O)C[C@@]21C [BECLOMETHASONE DIPROPIONATE]"
readoutnumber = 97

[[record]]
molecule = "COCCCN1CCC(NC(=O)c2cc(Cl)c(N)c3c2OCC3)CC1 [PRUCALOPRIDE]"
readoutnumber = 1

[[record]]
molecule = "COc1cc(Nc2ncc3c(n2)-c2ccc(Cl)cc2C(c2c(F)cccc2OC)=NC3)ccc1C(=O)O"
readoutnumber = 0

[[record]]
molecule = "CN1C[C@H](C(=O)N[C@]2(C)O[C@@]3(O)[C@@H]4CCCN4C(=O)[C@H](Cc4ccccc4)N3C2=O)C[C@@H]2c3cccc4[nH]cc(c34)C[C@H]21.CS(=O)(=O)O [DIHYDROERGOTAMINE MESYLATE]"
readoutnumber = 0

[[record]]
molecule = "CC(C)C[C@H](CO)Nc1nc(S[C@@H](C)c2ccccc2)nc2nc(N)sc12"
readoutnumber = 6

